Hello, the source for this data is patent US20200317776A1, in case you need it.

Below, each entry is listed alongside its reported Kd.
Molecular target: T1, human TREM2 Fc fusion (entire TREM2 ECD; only one Fc arm fused to TREM2) (human, UniProt Q9NZC2 19-174)
T1 construct: also called huTREM2-Fc; recombinant hTREM2
T1 sequence: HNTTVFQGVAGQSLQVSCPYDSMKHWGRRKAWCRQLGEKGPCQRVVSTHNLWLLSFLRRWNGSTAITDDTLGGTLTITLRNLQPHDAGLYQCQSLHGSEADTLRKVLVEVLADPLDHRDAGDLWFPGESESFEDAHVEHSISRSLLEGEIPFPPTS
Assay: BLI, Fab, monovalent
measured.endpoint: Kd (nM)

AL2p-20 (antibody, V domains shown, Fab and IgG formats under one id) VH: QVQLVQSGAEVKKPGSSVKVSCKASGYAFSSHWMNWVRQAPGQGLEWMGRIYPGDGDTNYARKFQGRVTITADESTSTAYMELSSLRSEDTAVYYCARLLRNQPGESYAMDYWGQGTLVTVSS VL: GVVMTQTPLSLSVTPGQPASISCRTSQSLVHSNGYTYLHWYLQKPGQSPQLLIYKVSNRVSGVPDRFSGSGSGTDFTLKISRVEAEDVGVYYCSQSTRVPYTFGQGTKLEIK	4.73
AL2p-36 (antibody, V domains shown, Fab and IgG formats under one id) VH: QVQLVQSGAEVKKPGASVKVSCKASGYAFSSSWMNWVRQAPGQRLEWIGRIYPGDGDTNYARKFQGRVTITADTSASTAYMELSSLRSEDTAVYYCARLLRNQPGASYAMDYWGQGTLVTVSS VL: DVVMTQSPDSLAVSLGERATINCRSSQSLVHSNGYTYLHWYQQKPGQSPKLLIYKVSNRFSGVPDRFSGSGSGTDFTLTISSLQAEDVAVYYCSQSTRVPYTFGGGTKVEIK	12.1
AL2p-44 (antibody, IgG1, V domains shown, Fab and IgG formats under one id) VH: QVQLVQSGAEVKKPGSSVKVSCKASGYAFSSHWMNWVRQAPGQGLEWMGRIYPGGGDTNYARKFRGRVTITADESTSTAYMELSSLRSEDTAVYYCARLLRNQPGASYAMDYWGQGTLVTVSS VL: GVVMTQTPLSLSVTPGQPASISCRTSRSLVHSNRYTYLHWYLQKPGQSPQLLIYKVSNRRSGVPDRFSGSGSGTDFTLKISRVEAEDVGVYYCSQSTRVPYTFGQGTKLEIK	0.41
